Reported CC50 values for a set of molecules
System: H-MEC-1
Experiment: Inhibition of cells growth by colorimetric assay (SRB), H-MEC-1
Type: cell-based
Details: Homo sapiens, HMEC-1; H-MEC-1, 48 hours exposure, SRB; read-out: LC50 (the source's name)
# value in µM; strip the unit string

>  <MOLECULE>
COc1c(C)cc2c(c1O)[C@@H]1C3[C@@H]4SC[C@]5(NCCc6c5[nH]c5ccccc65)C(=O)COC[C@@H](c5c6c(c(C)c(OC(=O)CCCl)c54)OCO6)N3[C@@H](C#N)[C@H](C2)N1C (stereo partly shown)

>  <UNIT INFO>
µM

>  <CC50>
12.3

$$$$
>  <MOLECULE>
C=CCOc1c(OC)c(C)cc2c1[C@@H]1C3[C@@H]4SC[C@]5(C(=O)COC[C@@H](c6c7c(c(C)c(OC(C)=O)c64)OCO7)N3[C@@H](O)[C@H](C2)N1C)c1[nH]c2ccccc2c1CCN5CC=C (stereo partly shown)

>  <UNIT INFO>
µM

>  <CC50>
8.54

$$$$
>  <MOLECULE>
COc1c(C)cc2c(c1OC(=O)OC(C)(C)C)[C@@H]1C3[C@@H]4SC[C@]5(NCCc6c5[nH]c5ccccc65)C(=O)COC[C@@H](c5c6c(c(C)c(OC(=O)OC(C)(C)C)c54)OCO6)N3[C@@H](C#N)[C@H](C2)N1C (stereo partly shown)

>  <UNIT INFO>
µM

>  <CC50>
10.8

$$$$

The record that follows has no CC50 shown yet.
stdin: Which CC50 value belongs to CCCC(=O)Oc1c(C)c2c(c3c1[C@H]1SC[C@]4(NCCc5c4[nH]c4ccccc54)C(=O)COC[C@@H]3N3C1[C@H]1c4c(cc(C)c(OC)c4O)C[C@@H]([C@@H]3C#N)N1C)OCO2 (stereo partly shown) ?
stdout: 0.0126

====

Test: physchem
Settings: pH 7.4, log D n-Octanol-Dulbecco's PBS pH 7.4
PROPERTY MEASURED: logD at 60 min

>  <MOLECULE>
COc1c(C)cc2c(c1O)[C@@H]1C3[C@@H]4SC[C@]5(NC(C)Cc6c5[nH]c5ccc(F)cc65)C(=O)COC[C@@H](c5c6c(c(C)c(OC(C)=O)c54)OCO6)N3[C@@H](O)[C@H](C2)N1C (stereo partly drawn) [Compound 41]

>  <logD at 60 min>
> 4.5

$$$$
>  <MOLECULE>
COc1c(C)cc2c(c1O)[C@@H]1C3[C@@H]4SC[C@]5(NC(C)Cc6c5[nH]c5ccccc65)C(=O)COC[C@@H](c5c6c(c(C)c(OC(C)=O)c54)OCO6)N3[C@@H](O)[C@H](C2)N1C (stereo partly drawn) [Compound 43]

>  <logD at 60 min>
> 4.5

$$$$
>  <MOLECULE>
COc1ccc2[nH]c3c(c2c1)CCN[C@]31CS[C@@H]2c3c(OC(C)=O)c(C)c4c(c3[C@H](COCC1=O)N1C2[C@H]2c3c(cc(C)c(OC)c3O)C[C@@H]([C@@H]1O)N2C)OCO4 (stereo partly drawn) [Compound 27]

>  <logD at 60 min>
> 5

$$$$

stdin: Can you share its logD at 60 min? I mean this molecule: COc1c(C)cc2c(c1O)[C@@H]1C3[C@@H]4SC[C@]5(NCCc6c5[nH]c5ccc(O)cc65)C(=O)COC[C@@H](c5c6c(c(C)c(OC(C)=O)c54)OCO6)N3[C@@H](O)[C@H](C2)N1C (stereo partly drawn) [Compound 31]
stdout: 3.61

stdin: Also need COc1c(C)cc2c(c1O)[C@@H]1C3[C@@H]4SC[C@]5(NCCc6c5[nH]c5cc(F)ccc65)C(=O)COC[C@@H](c5c6c(c(C)c(OC(C)=O)c54)OCO6)N3[C@@H](O)[C@H](C2)N1C (stereo partly drawn) [Compound 32] , thanks.
stdout: > 4.3

stdin: What about COc1ccc2c3c([nH]c2c1)[C@@]1(CS[C@@H]2c4c(OC(C)=O)c(C)c5c(c4[C@H](COCC1=O)N1C2[C@H]2c4c(cc(C)c(OC)c4O)C[C@@H]([C@@H]1O)N2C)OCO5)NCC3 (stereo partly drawn) [Compound 34] ?
stdout: > 5

stdin: Follow-up item: COc1c(C)cc2c(c1O)[C@@H]1C3[C@@H]4SC[C@]5(NCCc6c5[nH]c5ccc(F)cc65)C(=O)COC[C@@H](c5c6c(c(C)c(OC(C)=O)c54)OCO6)N3[C@@H](O)[C@H](C2)N1C (stereo partly drawn) [Compound 35]
stdout: > 5

stdin: Now give it for COc1c(C)cc2c(c1O)[C@@H]1C3[C@@H]4SC[C@]5(NCCc6c5[nH]c5c(C)cccc65)C(=O)COC[C@@H](c5c6c(c(C)c(OC(C)=O)c54)OCO6)N3[C@@H](O)[C@H](C2)N1C (stereo partly drawn) [Compound 36] too.
stdout: > 4.4

stdin: Ok, now COc1c(C)cc2c(c1O)[C@@H]1C3[C@@H]4SC[C@]5(NCCc6c5[nH]c5ccc(OCc7ccccc7)cc65)C(=O)COC[C@@H](c5c6c(c(C)c(OC(C)=O)c54)OCO6)N3[C@@H](O)[C@H](C2)N1C (stereo partly drawn) [Compound 29]
stdout: > 4.9
